biological target: O-acetyl-L-serine sulfhydrylase (EhOASS) (Entamoeba histolytica, UniProt O15570); experiment: PLP fluorescence titration (ex […] nm, em […] nm); also […] inhibition of purified enzyme at […]; format: binding
Sequence (O15570 entry or part of it): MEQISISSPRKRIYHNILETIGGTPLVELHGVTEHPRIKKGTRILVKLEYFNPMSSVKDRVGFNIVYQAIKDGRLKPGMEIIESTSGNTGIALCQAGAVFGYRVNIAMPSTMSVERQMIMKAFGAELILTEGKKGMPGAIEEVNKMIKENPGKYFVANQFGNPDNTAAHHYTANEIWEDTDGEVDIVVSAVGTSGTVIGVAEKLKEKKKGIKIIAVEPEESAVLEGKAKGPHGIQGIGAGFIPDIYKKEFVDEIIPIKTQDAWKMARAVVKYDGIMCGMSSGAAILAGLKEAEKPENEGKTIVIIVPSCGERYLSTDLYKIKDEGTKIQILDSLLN
value_kind: Kd

[in] Reported Kd for O=C(CSc1nc(O)cc(=O)[nH]1)c1c[nH]c2ccccc12 : what is it?
[out] ~8.05 µM

----------
target: O-acetyl-L-serine sulfhydrylase (EhOASS) (Entamoeba histolytica); assay: PLP fluorescence titration (ex […] nm, em […] nm); also […] inhibition of purified enzyme at […]; type: binding
value_kind: Kd
Answer format: value, then unit.

[in] Reported Kd for COc1ccc(C2C(C(C)=O)=C(O)C(=O)N2CCC(=O)O)cc1 (stereo not shown) : what is it?
[out] 180 nM
